# Tested on: corn (Zea mays)
# test.name: Test G Pre-Emergence Protocol
# Assay type: in vivo
# condition.description: Zea mays, pre-emergence, 312 h, 62.5 g ai/ha, evaluated after 13 days, 100=total damage to plant, 0=no damage to plant, read-out: Corn damage rating
measured.metric: plant injury at 62.5 g/ha (%)
Write the answer as a number in %, unit excluded.

| molecule | plant injury at 62.5 g/ha [%] |
| --- | --- |
| CCOc1cc(C)cc(C2CN(C)C(=O)C2C(=O)Nc2cccc(F)c2F)c1 (centres unmarked) | 60 |
| CSc1ccncc1NC(=O)[C@H]1C(=O)N(C)C[C@@H]1c1ccc(C(F)(F)F)cc1 (racemic) | 0 |
| CN1C[C@H](c2ccc(C(F)(F)F)c(C(F)(F)F)c2)[C@@H](C(=O)Nc2ccccc2S(C)(=O)=O)C1=O (racemic) | 70 |
| Cc1ccc(C2CN(C)C(=O)C2C(=O)Nc2cccc(F)c2F)cc1[N+](=O)[O-] (centres unmarked) | 30 |

Ask | Find the recorded plant injury at 62.5 g/ha belonging to CN1C[C@H](c2ccc(C(F)(F)F)cc2)[C@@H](C(=O)Nc2cccc3c2C(=O)OC3)C1=O (racemic) and report it.
Reply | 0

Ask | Find the recorded plant injury at 62.5 g/ha belonging to CN1C[C@@H](c2ccc(C(F)(F)F)cc2)[C@H](C(=O)Nc2ccc(F)nc2F)C1=O (racemic) and report it.
Reply | 0

Ask | Find the recorded plant injury at 62.5 g/ha belonging to CN1C[C@H](c2cccc(C(F)(F)F)c2)[C@@H](C(=O)Nc2ccc3cccnc3n2)C1=O (racemic) and report it.
Reply | 0

Ask | Find the recorded plant injury at 62.5 g/ha belonging to CCOc1c(Cl)cc(C2CN(C)C(=O)C2C(=O)Nc2cccc(F)c2F)cc1OC (centres unmarked) and report it.
Reply | 0

Ask | Find the recorded plant injury at 62.5 g/ha belonging to CN1C[C@@H](c2cccc(Oc3ccc(F)cc3)c2)[C@H](C(=O)Nc2cccc(F)n2)C1=O (racemic) and report it.
Reply | 10

Ask | Find the recorded plant injury at 62.5 g/ha belonging to CN1CC(c2ccc(C(F)(F)F)c(C(F)(F)F)c2)C(C(=O)Nc2cccc(F)c2F)C1=O (centres unmarked) and report it.
Reply | 0

Ask | Find the recorded plant injury at 62.5 g/ha belonging to CN1C[C@H](c2ccc(C(F)(F)F)cc2)[C@@H](C(=O)Nc2ccc[n+]([O-])c2C(F)(F)F)C1=O (racemic) and report it.
Reply | 0

Ask | Find the recorded plant injury at 62.5 g/ha belonging to COC(=O)c1cc([C@H]2CN(C)C(=O)[C@@H]2C(=O)Nc2ccccc2F)ccc1F (racemic) and report it.
Reply | 0

Ask | Find the recorded plant injury at 62.5 g/ha belonging to CN1C[C@H](c2cc(F)cc(F)c2)[C@@H](C(=O)Nc2cnccc2C(F)(F)F)C1=O (racemic) and report it.
Reply | 10

Ask | Find the recorded plant injury at 62.5 g/ha belonging to CCOc1cc(C2CN(C)C(=O)C2C(=O)Nc2cccc(F)c2F)ccc1Cl (centres unmarked) and report it.
Reply | 20

###

# System: blackgrass (Alopecurus myosuroides)
# test.name: Test A postemergence
# Format: in vivo
# condition.description: 500 g ai/ha, postemergence; visual injury, 0 to 100 scale (0 no effect, 100 complete control), approx. 10 d
measured.metric: Plant response rating, Blackgrass
Note: the reply should be a number with no unit written.

| molecule | experimental.system | measured.metric | measured |
| --- | --- | --- | --- |
| O=C1NCC(c2ccc(I)cc2)C1C(=O)Nc1ccccc1Cl (racemic) | blackgrass (Alopecurus myosuroides) | Plant response rating, Blackgrass | 30 |
| Cc1ccc([C@H]2CN(C)C(=O)[C@@H]2C(=O)Nc2ccccc2[S+](C)[O-])cc1Cl (stereo partly shown) | blackgrass (Alopecurus myosuroides) | Plant response rating, Blackgrass | 40 |
| O=C1NCC(c2csc(Br)c2)C1C(=O)Nc1ccccc1F (stereo not shown) | blackgrass (Alopecurus myosuroides) | Plant response rating, Blackgrass | 50 |

Would you kindly look at the next entry?
Ask | API: value(readout=Plant response rating, Blackgrass, system=blackgrass (Alopecurus myosuroides)) for record Cc1ccc(C2CNC(=O)C2C(=O)Nc2ccccc2F)cc1C(F)(F)F (racemic)
Reply | 50

###

# System: corn (Zea mays)
# test.name: Test G Pre-Emergence Protocol
# Format: in vivo
# condition.description: Zea mays, pre-emergence, 312 h, 250 g ai/ha, evaluated after 13 days, read-out: Corn damage rating (100=total damage to plant; 0=no damage to plant)
// values below are reported plant injury at 250 g/ha
Write the answer as a number in %, unit excluded.

| molecule | measured.metric | measured |
| --- | --- | --- |
| CN1C[C@@H](c2ccc(C(F)(F)F)nc2)[C@H](C(=O)Nc2cccc(F)n2)C1=O (racemic) [Compound 1491] | plant injury at 250 g/ha | 0 |
| CN1C[C@H](c2ccc(C(F)(F)F)cc2)[C@@H](C(=O)Nc2cccc3c2C(=O)OC3)C1=O (racemic) [Compound 1669] | plant injury at 250 g/ha | 0 |
| CN1C[C@H](c2cc(F)cc(F)c2)[C@@H](C(=O)Nc2cnccc2C(F)(F)F)C1=O (racemic) [Compound 1741] | plant injury at 250 g/ha | 30 |
| Cc1cc(F)ncc1NC(=O)[C@H]1C(=O)N(C)C[C@@H]1c1ccc(C(F)(F)F)cc1 (racemic) [Compound 1733] | plant injury at 250 g/ha | 80 |

Ask | Find the recorded plant injury at 250 g/ha belonging to CN1C[C@@H](c2cccc(C(F)(F)F)c2)[C@H](C(=O)Nc2cccnc2F)C1=O [Compound 1823] and report it.
Reply | 0

Ask | Find the recorded plant injury at 250 g/ha belonging to Cc1c(Cl)ccc([C@@H]2CN(C)C(=O)[C@H]2C(=O)Nc2cccc(F)c2F)c1F (racemic) [Compound 1473] and report it.
Reply | 10

Ask | Find the recorded plant injury at 250 g/ha belonging to Cc1ccc(NC(=O)[C@@H]2C(=O)N(C)C[C@H]2c2ccc(C(F)(F)F)cc2)c(Cl)c1 (racemic) [Compound 1590] and report it.
Reply | 0

Ask | Find the recorded plant injury at 250 g/ha belonging to CN1C[C@H](c2ccc(C(F)(F)F)cc2)[C@@H](C(=O)Nc2cncnc2Cl)C1=O (racemic) [Compound 1748] and report it.
Reply | 0

Ask | Find the recorded plant injury at 250 g/ha belonging to CN1C[C@H](c2ccc(C(F)(F)F)cc2)[C@@H](C(=O)Nc2cccnc2F)C1=O [Compound 1396] and report it.
Reply | 80

Ask | Find the recorded plant injury at 250 g/ha belonging to CN1C[C@@H](c2ccc(C(F)(F)F)cc2)[C@H](C(=O)Nc2ccc(F)nc2)C1=O (racemic) [Compound 1555] and report it.
Reply | 20

###

// values below are reported pest or weed control at 125 g/ha
# Tested on: blackgrass (Alopecurus myosuroides)
# test.name: Test A postemergence
# Type: in vivo
# condition.description: Alopecurus myosuroides, post-emergence, 240 h, 125 g ai/ha, postemergence; visual injury on 0 to 100 scale (0 no effect, 100 complete control), approx. 10 d; read-out: Blackgrass plant response rating

// known answers, use as guide
| compound | measured.metric | measured |
| --- | --- | --- |
| Cc1cc([C@H]2CN(C)C(=O)[C@@H]2C(=O)Nc2ccc(F)cc2F)ccc1Br [Compound 1100] | pest or weed control at 125 g/ha | 0% |
| Cc1ccncc1NC(=O)[C@H]1C(=O)N(C)C[C@@H]1c1ccc(C(F)(F)F)cc1 [Compound 1068] | pest or weed control at 125 g/ha | 0% |
| CN1CC(c2cccc(C(F)(F)F)c2)C(C(=O)Nc2ccccc2CO)C1=O (stereo not shown) [Compound 1145] | pest or weed control at 125 g/ha | 50% |
| CSc1ccccc1NC(=O)[C@H]1C(=O)N(C)C[C@@H]1c1ccc(F)c(Oc2ccccc2)c1 [Compound 1142] | pest or weed control at 125 g/ha | 0% |

Ask | Find the recorded pest or weed control at 125 g/ha belonging to CN1C[C@H](c2csc3c2CCC3)[C@@H](C(=O)Nc2ccc(F)c(F)c2F)C1=O [Compound 1081] and report it.
Reply | 0%

Ask | Find the recorded pest or weed control at 125 g/ha belonging to O=C(Nc1ccc(F)c(F)c1F)[C@H]1C(=O)N(O)CC[C@@H]1c1ccc(C(F)(F)F)cc1 [Compound 1108] and report it.
Reply | 0%

Ask | Find the recorded pest or weed control at 125 g/ha belonging to CN1C[C@H](c2cc(F)cc(F)c2)[C@@H](C(=O)Nc2cnccc2Cl)C1=O [Compound 1096] and report it.
Reply | 0%

Ask | Find the recorded pest or weed control at 125 g/ha belonging to CN1C[C@H](c2ccc(C(F)(F)F)cn2)[C@@H](C(=O)Nc2ccc(F)c(F)c2F)C1=O [Compound 1106] and report it.
Reply | 0%

Ask | Find the recorded pest or weed control at 125 g/ha belonging to C=C(C)c1cccc([C@H]2CN(C)C(=O)[C@@H]2C(=O)Nc2cccc(F)c2C)c1 [Compound 1086] and report it.
Reply | 0%

Ask | Find the recorded pest or weed control at 125 g/ha belonging to O=C1NC[C@H](c2ccc3c(c2)OCO3)[C@H]1C(=O)Nc1cccc(F)c1C(F)(F)F [Compound 1127] and report it.
Reply | 0%
